# tgt: EGFR[T790M/C797S/d746-750] (Homo sapiens, UniProt P00533, C797S/DEL746-750/T790M)
# Construct: purchased Carna Bio
# Sequence (P00533 with tags, fused parts or gaps DEL746-750/T790M/C797S limits assumed): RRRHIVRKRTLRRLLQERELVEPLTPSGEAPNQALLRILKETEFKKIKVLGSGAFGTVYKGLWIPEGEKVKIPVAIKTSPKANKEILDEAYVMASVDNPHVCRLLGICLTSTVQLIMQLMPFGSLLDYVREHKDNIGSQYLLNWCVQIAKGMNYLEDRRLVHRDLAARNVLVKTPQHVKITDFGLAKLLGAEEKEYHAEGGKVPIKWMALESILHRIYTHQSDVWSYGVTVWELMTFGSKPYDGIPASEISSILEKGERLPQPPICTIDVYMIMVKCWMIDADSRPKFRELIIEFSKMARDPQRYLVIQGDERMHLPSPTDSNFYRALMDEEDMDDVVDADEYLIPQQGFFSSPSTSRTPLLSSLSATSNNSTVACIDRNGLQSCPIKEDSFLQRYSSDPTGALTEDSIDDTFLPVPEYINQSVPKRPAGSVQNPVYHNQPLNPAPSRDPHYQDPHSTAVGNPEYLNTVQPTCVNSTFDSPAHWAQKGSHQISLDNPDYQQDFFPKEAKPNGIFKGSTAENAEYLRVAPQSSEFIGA
# measurementNotes: Inhibition of EGFR[T790M/C797S/d746-750] biochemical enzymatic activity (HTRF)
# conditionDescription: EGFR T790M-C797S-Del19, 1 mM ATP, 1 h, room temperature, read-out: IC50 (nM) @T790M - C797S - Del19
Exam item: assign yes (1) to entries whose IC50 is below 20 nM and no (0) to entries at or above 20 nM. Note that a value of exactly 20 nM receives no (0).

CN1CCN(c2ccc3c(c2)nc2n3C34CCC(CN(CCOc5c(cnn5C)-c5cc(cn(C)c5=O)C(=O)N2)C3)C4)CC1 (stereo not shown) [Example A60B] | yes (1)
CN(C)[C@@H]1CCN(c2ccc3nc4n(c3c2)C23CCC(CC2)CN(CCOc2c(cnn2C)-c2cc(cn(C)c2=O)C(=O)N4)C3)C1 | yes (1)
C[C@@H]1CCCOc2c(cnn2C)-c2cc(cn(C)c2=O)C(=O)Nc2nc3ccc(N4CC5(CN(C)C5)C4)cc3n2C1 | yes (1)
CN1C2CC1CN(c1ccc3nc4n(c3c1)C13CCC(CN(CCOc5c(cnn5C)-c5cc(cn(C)c5=O)C(=O)N4)C1)C3)C2 (single isomer, unassigned) [Example A98A] | no (0)
CN(C)CCCN(C)c1ccc2nc3n(c2c1)C12CCC(CC1)CN(CCOc1c(cnn1C)-c1cc(cn(C)c1=O)C(=O)N3)C2 | yes (1)
CN1CCC2(C1)CN(c1ccc3nc4n(c3c1)C13CCC(CN(CCOc5c(cnn5C)-c5cc(cn(C)c5=O)C(=O)N4)C1)C3)C2 (single isomer, unassigned) [Example A78A] | no (0)
CN1CCC2(CN(c3ccc4nc5n(c4c3)C34CCC(CN(CCOc6c(cnn6C)-c6cc(cn(C)c6=O)C(=O)N5)C3)C4)C2)C(F)(F)C1 (single isomer, unassigned) [Example A91B] | yes (1)

###

# tgt: EGFR L858R/T790M (Homo sapiens, UniProt P00533, L858R/T790M)
# Construct: purchased Carna Bio
# Sequence (P00533 25-1210 T790M/L858R): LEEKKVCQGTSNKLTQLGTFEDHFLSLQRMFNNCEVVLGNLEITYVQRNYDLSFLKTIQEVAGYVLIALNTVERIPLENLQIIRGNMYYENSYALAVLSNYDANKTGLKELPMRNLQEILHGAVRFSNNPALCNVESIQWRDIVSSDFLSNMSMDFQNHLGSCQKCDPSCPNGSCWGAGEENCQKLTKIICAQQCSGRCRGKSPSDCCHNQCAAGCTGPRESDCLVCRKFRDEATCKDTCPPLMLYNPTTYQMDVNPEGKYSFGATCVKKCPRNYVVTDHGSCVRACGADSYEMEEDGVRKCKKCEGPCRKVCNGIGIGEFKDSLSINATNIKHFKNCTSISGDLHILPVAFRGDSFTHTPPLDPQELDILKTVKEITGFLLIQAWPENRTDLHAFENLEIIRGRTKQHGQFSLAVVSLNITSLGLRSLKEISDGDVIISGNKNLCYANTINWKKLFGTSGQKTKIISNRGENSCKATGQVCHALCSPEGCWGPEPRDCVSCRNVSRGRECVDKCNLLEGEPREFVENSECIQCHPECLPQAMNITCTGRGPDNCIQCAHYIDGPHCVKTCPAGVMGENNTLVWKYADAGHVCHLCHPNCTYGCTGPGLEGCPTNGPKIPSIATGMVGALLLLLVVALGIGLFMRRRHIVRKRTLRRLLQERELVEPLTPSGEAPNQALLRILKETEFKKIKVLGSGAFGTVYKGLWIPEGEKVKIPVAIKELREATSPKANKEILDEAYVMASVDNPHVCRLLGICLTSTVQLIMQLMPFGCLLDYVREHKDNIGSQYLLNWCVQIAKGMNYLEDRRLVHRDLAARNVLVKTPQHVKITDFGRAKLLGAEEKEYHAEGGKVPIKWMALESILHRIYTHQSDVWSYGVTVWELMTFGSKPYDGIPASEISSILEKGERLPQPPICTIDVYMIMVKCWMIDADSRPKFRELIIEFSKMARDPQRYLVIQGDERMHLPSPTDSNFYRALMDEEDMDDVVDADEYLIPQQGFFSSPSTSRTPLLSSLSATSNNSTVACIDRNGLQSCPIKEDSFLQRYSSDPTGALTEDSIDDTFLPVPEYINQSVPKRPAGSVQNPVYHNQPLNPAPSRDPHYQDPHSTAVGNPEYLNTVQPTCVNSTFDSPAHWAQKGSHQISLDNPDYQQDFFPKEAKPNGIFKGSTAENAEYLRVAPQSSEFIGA
# measurementNotes: Inhibition of EGFR L858R/T790M biochemical enzymatic activity (HTRF)
# conditionDescription: EGFR L858R/T790M, 1 mM ATP, 1 h at room temperature, read-out: IC50 @L858R-T790M
pIC50: −log10 of the molar value.
parameter: pIC50

COCCN(C)c1ccc2nc3n(c2c1)C12CCC(CN(CCOc4c(cnn4C)-c4cc(cc(C)n4)C(=O)N3)C1)C2 (single isomer, unassigned) [Example B46B] | 7.92
Cc1cc2cc(n1)-c1cnn(C)c1OCCN1CC3CCC(CC3)(C1)n1c(nc3ccc(N4CCN(C5CC5)CC4)cc31)NC2=O [Example B36] | 8.12
Cc1cc2cc(n1)-c1cnn(C)c1OCCN1CC3CCC(CC3)(C1)n1c(nc3ccc(N4CC[C@@H](N(C)C)C4)cc31)NC2=O [Example B29] | 7.55

###

# System: Ba/F3 cells expressing EGFR mutations
# measurementNotes: Cell proliferation assay, Ba/F3 cells expressing EGFR mutations (CellTiter-Glo, 72 hours)
# Type: cell-based
# conditionDescription: Mus musculus, BaF3, 72 h, EGFR DEL19-T790M, CellTiter-Glo, read-out: DEL19-T790M GI50
# Description: Biological Example 2: Cell Proliferation Assays Ba/F3 cells expressing EGFR mutations were seeded in 384-well plates at 5000 cells/well in RPMI1640 medium containing 1000 FBS. […] The assay plates were further incubated for 72 hours and the number of viable cells (G3) was measured. The percentage of proliferation was calculated as: […]=100×(G3 value of sample well−G0 value)/(G3 value of DMSO control−G0 value). […]
parameter: GI50 (nM)

CN1CCN(c2ccc3nc4n(c3c2)C23CCC(CC2)CN(CCOc2c(cnn2C)-c2cc(cn(C)c2=O)C(=O)N4)C3)CC1 | 20
C[C@@H]1CCCOc2c(cnn2C)-c2cc(cn(C)c2=O)C(=O)Nc2nc3ccc(N4CC5(CCCN5C)C4)cc3n2C1 | 16
CCn1ncc2c1OCCC[C@@H](C)Cn1c(nc3ccc(N4CCN(C)CC4)cc31)NC(=O)c1cc-2c(=O)n(C)c1 | 24
C[C@@H]1CCCOc2c(cnn2C)-c2cc(cn(C)c2=O)C(=O)Nc2nc3ccc(N4CCC5(CCN(C)C5)CC4)cc3n2C1 | 1.6
Cn1ncc2c1OCCN1CC3CCC(C3)(C1)n1c(nc3ccccc31)NC(=O)c1cc-2c(=O)n(C)c1 (single isomer, unassigned) [Example A61A] | 913
CN(C)CCC1CN(c2ccc3nc4n(c3c2)C23CCC(CN(CCOc5c(cnn5C)-c5cc(cn(C)c5=O)C(=O)N4)C2)C3)C1 (single isomer, unassigned) [Example A95B] | 177
C[C@@H]1CCCOc2c(cnn2C)-c2cc(cn(C)c2=O)C(=O)Nc2nc3ccc(N4CCC5(CCN(C)C5)C4)cc3n2C1 (some centres unmarked) | 5
CN1CCN(c2ccc3nc4n(c3c2)CC2(CCCOc3c(cnn3C)-c3cc(cn(C)c3=O)C(=O)N4)CC2)CC1 | 187
CCN1CCN(c2ccc3nc4n(c3c2)C[C@H](C)CCCOc2c(cnn2C)-c2cc(cn(C)c2=O)C(=O)N4)CC1 | 18
C[C@@H]1CCCOc2c(cnn2C)-c2cc(cn(C)c2=O)C(=O)Nc2nc3ccc(N4CC5(CCN(C)C5)C4)cc3n2C1 | 2.2
C[C@@H]1CCCOc2c(cnn2C)-c2cc(cn(C)c2=O)C(=O)Nc2nc3ccc(N4CC5(CN(C)C5)C4)cc3n2C1 | 7.7
C[C@@H]1CCCOc2c(cnn2C)-c2cc(cn(C)c2=O)C(=O)Nc2nc3ccc(N4CCN(C)CC4)c(Cl)c3n2C1 | 92
C[C@@H]1CCCOc2c(cnn2C)-c2cc(cn(C)c2=O)C(=O)Nc2nc3ccc(N4CCNCC4)c(Cl)c3n2C1 | 10
C[C@@H]1CCCOc2c(cnn2C)-c2cc(cn(C)c2=O)C(=O)Nc2nc3ccc(N4CC(N5CCOCC5)C4)cc3n2C1 | 20
C[C@@H]1CCCOc2c(cnn2C)-c2cc(cn(C)c2=O)C(=O)Nc2nc3ccc(N4CC5(CCN(C)CC5)C4)cc3n2C1 | 1.4
Cn1ncc2c1OCCN1CCCCC(C1)n1c(nc3ccccc31)NC(=O)c1cc-2c(=O)n(C)c1 (centres unmarked) | 256
C[C@@H]1CCCOc2c(cnn2C)-c2cc(cn(C)c2=O)C(=O)Nc2nc3ccc(N4CCC(N(C)C)C4)cc3n2C1 (some centres unmarked) | 3.5
C[C@@H]1CCCOc2c(cnn2C)-c2cc(cn(C)c2=O)C(=O)Nc2nc3ccc(N4CC(N5CCN(C)CC5)C4)cc3n2C1 | 8.1
C[C@@H]1CCCOc2c(cnn2C)-c2cc(cn(C)c2=O)C(=O)Nc2nc3ccc(N4CCC5(CN(C)C5)C4)cc3n2C1 | 5.2
C[C@@H]1CCCOc2c(cnn2C)-c2cc(cn(C)c2=O)C(=O)Nc2nc3ccc4c(c3n2C1)CCNC4 | 59
C[C@@H]1CCCOc2c(cnn2C)-c2cc(cn(C)c2=O)C(=O)Nc2nc3ccc(N4CCC(N5CCN(C)CC5)C4)cc3n2C1 (some centres unmarked) | 3.2
C[C@@H]1CCCOc2c(cnn2C)-c2cc(cn(C)c2=O)C(=O)Nc2nc3ccc(N4CC5(CCN(C)CC5(F)F)C4)cc3n2C1 | 17
Cn1ncc2c1OCCN1CC3CCC(C3)(C1)n1c(nc3cc(Br)ccc31)NC(=O)c1cc-2c(=O)n(C)c1 (centres unmarked) | 140
CC(C)N1CCN(c2ccc3nc4n(c3c2)C[C@H](C)CCCOc2c(cnn2C)-c2cc(cn(C)c2=O)C(=O)N4)CC1 | 7.5
Cn1ncc2c1OCCN1CCCCC(C)(C1)n1c(nc3ccc(N4CCOCC4)cc31)NC(=O)c1cc-2c(=O)n(C)c1 (centres unmarked) | 192
C[C@@H]1CCCOc2c(cnn2C)-c2cc(cn(C)c2=O)C(=O)Nc2nc3ccc(Br)cc3n2C1 | 300

###

# tgt: EGFR Exon19Del (Homo sapiens, UniProt P00533, DEL746-750)
# Construct: purchased Carna Bio
# Sequence (P00533 with tags, fused parts or gaps DEL746-750 limits assumed): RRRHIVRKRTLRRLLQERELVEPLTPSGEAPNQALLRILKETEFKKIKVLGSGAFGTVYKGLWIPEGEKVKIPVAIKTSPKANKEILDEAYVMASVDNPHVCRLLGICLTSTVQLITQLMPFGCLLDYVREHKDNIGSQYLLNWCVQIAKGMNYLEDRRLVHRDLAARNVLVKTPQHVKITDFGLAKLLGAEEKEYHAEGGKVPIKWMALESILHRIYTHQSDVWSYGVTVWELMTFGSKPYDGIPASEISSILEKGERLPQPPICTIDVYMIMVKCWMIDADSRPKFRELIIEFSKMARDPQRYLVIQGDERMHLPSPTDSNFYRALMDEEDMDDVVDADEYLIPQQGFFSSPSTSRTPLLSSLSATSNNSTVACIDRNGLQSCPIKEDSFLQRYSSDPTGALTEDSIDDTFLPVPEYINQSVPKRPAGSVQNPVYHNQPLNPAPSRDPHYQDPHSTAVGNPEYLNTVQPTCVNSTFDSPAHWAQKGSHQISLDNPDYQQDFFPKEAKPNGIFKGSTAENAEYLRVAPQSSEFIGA
# measurementNotes: Inhibition of EGFR Exon19Del biochemical enzymatic activity (HTRF)
# conditionDescription: EGFR Del19, 1 mM ATP, 1 h, room temperature, read-out: IC50 @Del19
# Method: Biological Example 1: Inhibition of EGFR WT and Mutant Biochemical Enzymatic Activity The inhibition potency of compounds against these enzymes was assessed using Homogenous Time Resolved Fluorescence approach (HTRF, CisBio. Cat No. 62TKOPEJ). Inhibitory effects of the compounds were determined by measuring the enzymatic activity of EGFR enzyme phosphorylates 1 μM TK Substrate-biotin in the presence of 1 mM adenosine-5′-triphosphate (ATP) and varying concentrations of the test compound. […]
pIC50: −log10 of the molar value.
parameter: pIC50

CN1CCN(C2CN(c3ccc4nc5n(c4c3)C34CCC(CN(CCOc6c(cnn6C)-c6cc(cn(C)c6=O)C(=O)N5)C3)C4)C2)CC1 (single isomer, unassigned) [Example A70B] | 8.80
Cn1ncc2c1OCCN1CC3CCC(C3)(C1)n1c(nc3ccccc31)NC(=O)c1cc-2c(=O)n(C)c1 (single isomer, unassigned) [Example A61A] | 5.66
CN1CCC2(CC1)CN(c1ccc3nc4n(c3c1)C13CCC(CN(CCOc5c(cnn5C)-c5cc(cn(C)c5=O)C(=O)N4)C1)C3)C2 (single isomer, unassigned) [Example A77B] | 8.54
Cn1ncc2c1OCCN1CC3CCC(C3)(C1)n1c(nc3cc(Br)ccc31)NC(=O)c1cc-2c(=O)n(C)c1 (centres unmarked) | 6.69
CN1CC2CC1CN2c1ccc2nc3n(c2c1)C12CCC(CN(CCOc4c(cnn4C)-c4cc(cn(C)c4=O)C(=O)N3)C1)C2 (single isomer, unassigned) [Example A105A] | 6.42
Cn1ncc2c1OCCN1CC3CCC(C3)(C1)n1c(nc3ccc(N4CC(N5CCOCC5)C4)cc31)NC(=O)c1cc-2c(=O)n(C)c1 (single isomer, unassigned) [Example A69B] | 8.54
C[C@@H]1CCCOc2c(cnn2C)-c2cc(cn(C)c2=O)C(=O)Nc2nc3ccc(N4CCOCC4)cc3n2C1 | 8.10
C[C@@H]1CCCOc2c(cnn2C)-c2cc(cn(C)c2=O)C(=O)Nc2nc3ccc(N4CC(F)(CN(C)C)C4)cc3n2C1 | 8.04
CN1CCC2(CCN(c3ccc4nc5n(c4c3)C34CCC(CN(CCOc6c(cnn6C)-c6cc(cn(C)c6=O)C(=O)N5)C3)C4)CC2)C1 (single isomer, unassigned) [Example A82B] | 8.96
Cn1ncc2c1OCCN1CC3CCC(C3)(C1)n1c(nc3ccc(N4CCOCC4)cc31)NC(=O)c1cc-2c(=O)n(C)c1 (single isomer, unassigned) [Example A62B] | 8.46
CN1CC2(C1)CN(c1ccc3nc4n(c3c1)C13CCC(CN(CCOc5c(cnn5C)-c5cc(cn(C)c5=O)C(=O)N4)C1)C3)C2 (single isomer, unassigned) [Example A92A] | 6.24
CN(C)C1CCN(c2ccc3nc4n(c3c2)C23CCC(CN(CCOc5c(cnn5C)-c5cc(cn(C)c5=O)C(=O)N4)C2)C3)CC1(F)F (single isomer, unassigned) [Example A97B] | 8.36
CCN1CCN(c2ccc3nc4n(c3c2)C[C@H](C)CCCOc2c(cnn2C)-c2cc(cn(C)c2=O)C(=O)N4)CC1 | 8.26
CN1CCN(C2CCN(c3ccc4nc5n(c4c3)C34CCC(CN(CCOc6c(cnn6C)-c6cc(cn(C)c6=O)C(=O)N5)C3)C4)C2)CC1 (single isomer, unassigned) [Example A80A2] | 6.31
Cn1ncc2c1OCCN1CC3CCC(C3)(C1)n1c(nc3ccc(N4CCC(N5CCOCC5)C4)cc31)NC(=O)c1cc-2c(=O)n(C)c1 (single isomer, unassigned) [Example A104B] | 8.21
Cn1ncc2c1OCCN1CC3CCC(C3)(C1)n1c(nc3ccc(N4CCC(N5CC(F)C5)C4)cc31)NC(=O)c1cc-2c(=O)n(C)c1 (single isomer, unassigned) [Example A94B1] | 8.00
C[C@@H]1CCCOc2c(cnn2C)-c2cc(cn(C)c2=O)C(=O)Nc2nc3ccc(N4CC5(CCCN5C)C4)cc3n2C1 | 8.31
C[C@@H]1CCCOc2c(cnn2C)-c2cc(cn(C)c2=O)C(=O)Nc2nc3ccc(N4CCC(N(C)C)C(F)C4)cc3n2C1 (some centres unmarked) | 8.89
COCCN(C)c1ccc2nc3n(c2c1)C12CCC(CN(CCOc4c(cnn4C)-c4cc(cn(C)c4=O)C(=O)N3)C1)C2 (single isomer, unassigned) [Example A90A] | 5.77
Cn1ncc2c1OCCN1CC3CCC(C3)(C1)n1c(nc3ccc(N4CCOCC4)cc31)NC(=O)c1cc-2c(=O)n(C)c1 (centres unmarked) [Example A62] | 8.02
CCn1cc2cc(c1=O)-c1cnn(C)c1OCCC[C@@H](C)Cn1c(nc3ccc(N4CCN(C)CC4)cc31)NC2=O | 6.84
C[C@@H]1CCCOc2c(cnn2C)-c2cc(cn(C)c2=O)C(=O)Nc2nc3ccc(N4CCN(C)CC4)c(Cl)c3n2C1 | 8.46
CN1CCC2(CC1)CCN(c1ccc3nc4n(c3c1)C13CCC(CN(CCOc5c(cnn5C)-c5cc(cn(C)c5=O)C(=O)N4)C1)C3)C2 (single isomer, unassigned) [Example A88A] | 6.32
